System: Klebsiella pneumoniae
Assay: Antibacterial activity against Klebsiella pneumoniae 700603 by broth microdilution assay
Format: functional

| Molecule | MIC |
| --- | --- |
| Cc1ccc(CCn2ccn3cc([N+](=O)[O-])nc3c2=O)cc1 | > 32 µg/mL |
| O=c1c2nc([N+](=O)[O-])cn2ccn1CCc1ccc(OC(F)(F)F)cc1 | > 32 µg/mL |
| O=c1c2nc([N+](=O)[O-])cn2ccn1Cc1ccccc1OC(F)(F)F | > 32 µg/mL |
| O=c1c2nc([N+](=O)[O-])cn2ccn1CCN1CCOCC1 | > 32 µg/mL |
| O=c1c2nc([N+](=O)[O-])cn2ccn1Cc1ccccn1 | > 32 µg/mL |
| O=c1[nH]ccn2cc([N+](=O)[O-])nc12 | > 32 µg/mL |
| O=c1c2nc([N+](=O)[O-])cn2ccn1Cc1ccc(F)cc1F | > 32 µg/mL |
| Cc1ccc(Cn2ccn3cc([N+](=O)[O-])nc3c2=O)cc1 | > 32 µg/mL |
| O=c1c2nc([N+](=O)[O-])cn2ccn1C1CCCCC1 | > 32 µg/mL |
| CC(c1ccc(F)cc1)n1ccn2cc([N+](=O)[O-])nc2c1=O (stereo not drawn) | > 32 µg/mL |
| Cc1cccc(Cn2ccn3cc([N+](=O)[O-])nc3c2=O)c1 | > 32 µg/mL |
| NC(=O)Cn1ccn2cc([N+](=O)[O-])nc2c1=O | > 32 µg/mL |
| O=c1c2nc([N+](=O)[O-])cn2ccn1Cc1ccc(F)cc1 | > 32 µg/mL |
